- targetEntity: human adenosine A2B receptors (Homo sapiens)
- Construct: expressed in transfected cells
- Sequence (P29275 1-332): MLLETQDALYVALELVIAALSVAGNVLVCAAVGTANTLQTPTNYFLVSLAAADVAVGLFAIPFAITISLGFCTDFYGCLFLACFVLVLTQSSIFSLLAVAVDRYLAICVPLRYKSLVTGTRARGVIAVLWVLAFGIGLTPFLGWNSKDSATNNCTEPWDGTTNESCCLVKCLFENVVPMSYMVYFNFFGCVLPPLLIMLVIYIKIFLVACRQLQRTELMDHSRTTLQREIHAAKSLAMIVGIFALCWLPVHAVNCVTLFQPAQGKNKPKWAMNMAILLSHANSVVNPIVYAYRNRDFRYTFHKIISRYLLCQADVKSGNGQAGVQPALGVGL
- methodDescription: FLIPR calcium flux assay in cells expressing human adenosine A2B receptors
- Type: cell-based
- setupConditions: expressed human adenosine A2B receptors in mammalian cell lines, from dose response curves, read-out: Activity (IC50 activity range)
observedProperty: IC50

Use the examples below as a reference point.
>  <molecule>
COc1ccccc1-c1cn(C)c2nc(NCc3cccnc3)nc(C(=O)c3cccs3)c12 [Example 29]

>  <observedProperty>
IC50

>  <observedMeasurement>
> 500 nM

$$$$
>  <molecule>
Cc1ccc(C(=O)c2nc(NCc3cccnc3)nc3c2ccn3C)s1 [Example 8]

>  <observedProperty>
IC50

>  <observedMeasurement>
< 500 nM

$$$$
>  <molecule>
O=C(c1cccs1)c1nc(Cl)nc2c1ccn2Cc1ccccc1 [Example 17]

>  <observedProperty>
IC50

>  <observedMeasurement>
> 500 nM

$$$$
>  <molecule>
Cc1ccc(C(=O)c2nc(NCc3ccncc3)nc3c2ccn3C)s1 [Example 10]

>  <observedProperty>
IC50

>  <observedMeasurement>
> 500 nM

$$$$

Query: Give its IC50 value. Item: Cn1ccc2c(C(=O)c3cccs3)nc(NCc3cccnc3)nc21 [Example 6]
Reply: < 500 nM

Query: Give its IC50 value. Item: Cn1cc(-c2ccc(S(C)(=O)=O)cc2)c2c(C(=O)c3cccs3)nc(NCc3cccnc3)nc21 [Example 27]
Reply: > 500 nM

----------
- targetEntity: UniProt:P29275
- methodDescription: FLIPR calcium flux assay in cells expressing human adenosine A2B receptors
- setupConditions: expressed human adenosine A2B receptors in mammalian cell lines, from dose response curves, read-out: Activity (IC50 activity range)
observedProperty: IC50

>  <molecule>
Cn1c(Cl)cc2c(C(=O)c3cccs3)nc(NCc3cccnc3)nc21 [Example 40]

>  <targetEntity>
UniProt:P29275

>  <IC50>
> 500 nM

$$$$
>  <molecule>
CCCCCn1ccc2c(C(=O)c3cccs3)nc(NCc3cccnc3)nc21 [Example 19]

>  <targetEntity>
UniProt:P29275

>  <IC50>
> 500 nM

$$$$
>  <molecule>
O=C(c1cccs1)c1nc(NCc2ccccn2)nc2[nH]ccc12 [Example 14]

>  <targetEntity>
UniProt:P29275

>  <IC50>
> 500 nM

$$$$

Query: Form: Entry = Cn1cc(-c2ccccc2)c2c(C(=O)c3cccs3)nc(NCc3cccnc3)nc21 [Example 26] | System = UniProt:P29275 | IC50 = ____
Reply: > 500 nM

Query: Form: Entry = CC(Nc1nc(C(=O)c2cccs2)c2ccn(C)c2n1)c1cccnc1 (centres unmarked) [Example 7] | System = UniProt:P29275 | IC50 = ____
Reply: < 500 nM
